Biological target: recombinant human Estrogen Receptor alpha ligand binding domain (ER alpha-LBD (GST)) (Homo sapiens (Human), UniProt P03372)
Sequence (P03372 307-554): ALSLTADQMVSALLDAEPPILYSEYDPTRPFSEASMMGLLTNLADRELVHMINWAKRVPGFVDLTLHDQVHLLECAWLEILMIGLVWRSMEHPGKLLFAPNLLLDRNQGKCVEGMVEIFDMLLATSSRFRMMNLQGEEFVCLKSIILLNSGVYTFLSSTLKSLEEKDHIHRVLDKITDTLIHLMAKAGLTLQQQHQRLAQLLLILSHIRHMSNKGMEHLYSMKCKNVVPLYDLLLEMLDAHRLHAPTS
Assay: ERα binding assay (LanthaScreen TR-FRET competition)
Consider the following compounds and their measured IC50 readings.

Some solved cases for reference:
- Compound: "C[C@@H]1Cc2c([nH]c3ccccc23)[C@@H](c2c(F)cnc(OCCNCCCF)c2Cl)N1CC(F)(F)CO [Example 111]"
  IC50: "0.6 nM"
- Compound: "C[C@@H](CN1[C@H](c2c(F)cnc(OCCNCCCF)c2Cl)c2[nH]c3ccccc3c2C[C@H]1C(F)(F)F)C(=O)O [Example 142]"
  IC50: "1.5 nM"
- Compound: "C[C@@H]1Cc2c([nH]c3ccc(F)cc23)[C@@H](c2c(F)ccc(OCCNCCCF)c2F)N1C[C@H](C)C(=O)O [Example 59]"
  IC50: "2.3 nM"
- Compound: "C[C@@H]1Cc2c([nH]c3ccccc23)[C@@H](c2cccc(OCCNCCCF)c2C(F)F)N1CC(F)(F)CO [Example 68]"
  IC50: "0.69 nM"
- Compound: "COc1ccc(NCCNCCCF)cc1[C@@H]1c2[nH]c3ccccc3c2C[C@@H](C)N1CC(F)(F)F [Example 40]"
  IC50: "7.9 nM"

Given C[C@@H]1Cc2c([nH]c3ccc(F)cc23)[C@@H](c2c(F)cnc(OCCNCCCF)c2F)N1CC1(F)CC1 [Example 109] , respond with its IC50.
1.2 nM

Supply measured IC50 of C[C@@H]1Cc2c([nH]c3ccccc23)[C@@H](c2c(F)cnc(OCCNCCCF)c2F)N1CC1(F)CC1 [Example 108] in your reply.
1 nM

###

Molecular target: Estrogen Receptor (ERα) in MCF-7 cells (Homo sapiens (Human), UniProt P03372)
Sequence (P03372 whole entry): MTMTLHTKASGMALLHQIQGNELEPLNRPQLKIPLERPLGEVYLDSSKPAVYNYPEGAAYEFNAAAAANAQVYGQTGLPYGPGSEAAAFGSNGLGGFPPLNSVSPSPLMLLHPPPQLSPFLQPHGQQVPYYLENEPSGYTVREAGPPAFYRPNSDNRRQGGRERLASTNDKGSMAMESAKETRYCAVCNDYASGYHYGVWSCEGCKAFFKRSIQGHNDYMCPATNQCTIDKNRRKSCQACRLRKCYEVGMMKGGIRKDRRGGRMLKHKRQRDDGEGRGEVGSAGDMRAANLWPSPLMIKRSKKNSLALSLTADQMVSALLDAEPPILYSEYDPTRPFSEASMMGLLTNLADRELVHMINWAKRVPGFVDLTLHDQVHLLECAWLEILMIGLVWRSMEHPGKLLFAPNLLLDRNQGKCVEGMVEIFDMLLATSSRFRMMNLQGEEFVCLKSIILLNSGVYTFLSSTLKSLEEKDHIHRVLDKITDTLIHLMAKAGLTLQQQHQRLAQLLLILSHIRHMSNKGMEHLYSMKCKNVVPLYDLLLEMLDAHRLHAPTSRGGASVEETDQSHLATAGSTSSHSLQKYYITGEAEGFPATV
Assay: MCF-7 ER down-regulation assay (immuno-fluorescence)
Label key: true means IC50 under 1 nM; false means IC50 of 1 nM or more.

Field: example entries. Status: answers known.
- Compound: "C[C@@H]1Cc2c([nH]c3ccccc23)[C@@H](c2c(F)ccc(OCCNCCCF)c2F)N1CC1(S(C)(=O)=O)CC1"
  Class Name: "false"
- Compound: "C[C@@H]1Cc2c([nH]c3ccccc23)[C@@H](c2cc(F)cc(OCCNCCCF)c2F)N1CC(F)(F)F"
  Class Name: "false"
- Compound: "COc1ccc(NCCNCCCF)c(F)c1[C@@H]1c2[nH]c3ccccc3c2C[C@@H](C)N1CC(F)(F)F"
  Class Name: "true"
- Compound: "C[C@@H]1Cc2c([nH]c3ccccc23)[C@@H](c2cc(OCCNCCCF)ccn2)N1CC(F)(F)F"
  Class Name: "false"
- Compound: "COc1ccc(O[C@@H](C)CNCCCF)cc1[C@@H]1c2[nH]c3ccccc3c2C[C@@H](C)N1CC(F)(F)CO"
  Class Name: "false"
- Compound: "Cc1c(OCCNCCCF)ccc(F)c1[C@@H]1c2[nH]c3ccccc3c2C[C@@H](C)N1CCC#N"
  Class Name: "true"

Here's an entry: C[C@@H]1Cc2c([nH]c3ccccc23)[C@@H](c2nccc(OCCNCCCF)c2F)N1CC1(F)COC1 . Is its IC50 below 1 nM?
false

Identify whether the compound C[C@@H]1Cc2c([nH]c3ccc(F)cc23)[C@@H](c2c(F)cnc(OCCNCCCF)c2F)N1CC(F)(F)CO records IC50 below 1 nM.
true
